- Target under test: T1, His-tagged CEACAM1 (human, UniProt P13688 35-428)
- T1 construct: 45 kDa SPR analyte; also called CEACAM1-HIS; CEACAM1 analyte
- T1 sequence: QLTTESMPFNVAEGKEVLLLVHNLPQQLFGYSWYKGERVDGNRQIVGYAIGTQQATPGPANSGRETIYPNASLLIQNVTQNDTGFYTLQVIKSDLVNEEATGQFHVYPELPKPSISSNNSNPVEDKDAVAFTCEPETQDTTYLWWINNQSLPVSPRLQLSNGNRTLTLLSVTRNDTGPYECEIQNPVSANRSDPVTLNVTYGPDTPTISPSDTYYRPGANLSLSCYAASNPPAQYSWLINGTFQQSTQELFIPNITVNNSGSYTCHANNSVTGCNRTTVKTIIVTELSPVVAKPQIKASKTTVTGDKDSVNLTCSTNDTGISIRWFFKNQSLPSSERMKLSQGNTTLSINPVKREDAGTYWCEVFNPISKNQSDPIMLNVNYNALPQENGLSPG
- Measurement description: SPR single-cycle, supernatant IgG captured
Give koff for every item shown.
Write it as a number; the unit s⁻¹ goes unstated.

Input line: Please look at this binder and report its koff: CP09E05/CP08E01 (antibody, IgG4, V domains shown, IgG4 (S241P), kappa) VH: EVQLLESGGGLVQPGGSLRLSCAASGFIFSSHGMSWVRQAPGKGLEWVATISSGGTYTYYPDSVKGRFTISRDNSKNTLYLQMNSLKAEDTAMYYCARHGFDYDAAWFAYWGQGTLVTVSS VL: EIVLTQSPATLSLSPGERATLSCRANSAVSYMYWYQQKPGQAPRPWIYLTSNRATGVPARFSGSGSGTDYTLTISSLEPEDFAVYYCQQWTTFPPTFGQGTKLEIK
Output line: 0.041

Input line: Given the binder CP09C02/Vκ8 S29A (antibody, IgG4, V domains shown, IgG4 (S241P), kappa) VH: EVQLLESGGGLVQPGGSLRLSCAASEFTFSDHAMSWVRQAPGKGLEWVATISSGGTYTYYPDSVKGRFTISRDNSKNTLYLQMNSLKAEDTAMYYCARHGFDYDAAWFAYWGQGTLVTVSS VL: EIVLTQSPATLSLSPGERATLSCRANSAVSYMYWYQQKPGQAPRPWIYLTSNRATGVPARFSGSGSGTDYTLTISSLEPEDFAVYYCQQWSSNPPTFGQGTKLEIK , write its reported koff.
Output line: 0.019
